Each item that follows carries a reported pIC50.
Biological target: EGFR (Homo sapiens)
Construct: The intracellular portion of EGFR started at nucleotide 2189 (corresponding to amino acid 667) and ended at the termination codon
Sequence (P00533 669-1210 limits assumed): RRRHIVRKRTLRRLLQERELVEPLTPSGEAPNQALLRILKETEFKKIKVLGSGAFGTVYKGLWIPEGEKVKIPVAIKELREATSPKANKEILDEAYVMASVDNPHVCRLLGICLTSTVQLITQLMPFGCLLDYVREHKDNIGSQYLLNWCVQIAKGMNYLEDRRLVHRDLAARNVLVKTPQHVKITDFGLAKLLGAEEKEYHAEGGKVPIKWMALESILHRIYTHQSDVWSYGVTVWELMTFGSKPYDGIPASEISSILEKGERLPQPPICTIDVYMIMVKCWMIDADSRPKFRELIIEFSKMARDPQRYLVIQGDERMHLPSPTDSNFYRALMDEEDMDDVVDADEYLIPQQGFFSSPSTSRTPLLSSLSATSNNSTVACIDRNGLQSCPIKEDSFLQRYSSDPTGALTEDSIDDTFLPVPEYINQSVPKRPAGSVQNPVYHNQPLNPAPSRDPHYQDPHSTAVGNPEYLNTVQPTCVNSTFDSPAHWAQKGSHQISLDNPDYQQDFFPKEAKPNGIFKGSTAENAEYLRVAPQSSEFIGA
Assay: EGFR Kinase Assay
Conditions: GST-EGFR, ATP 5 μM
Method: The EGFR kinase used was a fusion of Glutathione-S-Transferase (GST) and a PCR amplified intracellular portion of EGFR (Accession Number NM_005228). […] The plates were incubated at 30° C. for 1 hr with shaking. […] The plates were then sealed and read on the TopCount scintillation counter. Test compounds were assayed in triplicate at 16 concentrations at half-log dilutions starting at 200 uM. A maximum and minimum signal for the assay was determined on each plate. […]
Scale note: pIC50 = -log10(concentration in M).

get_value(item= COc1cc(NC(=O)c2sc3ncnc4c3c2NC(=O)N4c2cccc(Br)c2)ccc1CN1CCOCC1 , readout=pIC50) returns 7.77

Record O=C(Nc1ccc(CN2CCCCC2)cc1)c1sc2ncnc3c2c1NC(=O)N3c1ccc(Oc2cccc(F)c2)c(Cl)c1 , field pIC50: 7.64

Where do the numbers come from? From patent US7579356B2.
